target_desc: T1, Mouse HARS (mouse, UniProt Q61035 1-509, limits assumed)
T1 construct: also called mouse HRS
T1 sequence: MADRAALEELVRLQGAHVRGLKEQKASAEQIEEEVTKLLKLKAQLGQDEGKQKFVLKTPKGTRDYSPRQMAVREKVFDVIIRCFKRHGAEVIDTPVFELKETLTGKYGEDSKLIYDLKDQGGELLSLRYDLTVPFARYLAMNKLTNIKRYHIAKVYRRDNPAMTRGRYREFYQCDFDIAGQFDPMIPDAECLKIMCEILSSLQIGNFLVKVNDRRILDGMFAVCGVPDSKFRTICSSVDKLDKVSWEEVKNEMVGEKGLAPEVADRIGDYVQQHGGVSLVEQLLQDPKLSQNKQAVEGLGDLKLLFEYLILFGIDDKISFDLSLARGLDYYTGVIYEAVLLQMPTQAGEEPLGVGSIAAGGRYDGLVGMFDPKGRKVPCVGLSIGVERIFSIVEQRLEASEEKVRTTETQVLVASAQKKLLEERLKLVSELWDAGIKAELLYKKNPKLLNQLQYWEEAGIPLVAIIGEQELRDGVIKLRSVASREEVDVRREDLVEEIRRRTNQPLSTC
protocol_notes: SPR (ProteOn); HRS protein immobilized, antibody as analyte
pKd: −log10 of the molar value.
Use 10 as the dividing line for pKd, with the line itself on the met side and lower values as not met.

binder	assigned_class
AB13-288 (IgG4-2 kappa) (antibody, V domains shown, Human) VH: QVQLVESGGGLVKPGGSLRLSCAASGFTFSDYYMSWIRQAPGKGLEWVSYISDKSRYTKYTDKVRGRFTISRDNAKNSLYLQMNSLRAEDTAVYYCARYLYQVIAIADAWGQGTLVTVSS VL: DIQMTQSPSSVSASVGDRVTITCRASQGISSWLAWFQQKPGKAPKLLIFVASNLESGVPSRFSGSGSGTDFTLTISSLQPEDFATYYCQQAESFPYTFGQGTKLEIK	met
AB13-433 (antibody, V domains shown, Human; IgG1m(zf) kappa) VH: QVQLVESGGGLVKPGGSLRLSCAASGFTFSDYYMSWIRQAPGKGLEWVSYISDSSTYTNYTDSVRGRFTISRDNAKNSLYLQMNSLRAEDTAVYYCARYLYQVIAVADSWGQGTLVTVSS VL: DIQMTQSPSSVSASVGDRVTITCRASQGISSWLAWFQQKPGKAPKLLIYVASNLESGVPSRFSGSGSGTDFTLTISSLQPEDFATYYCQQANSFPYTFGQGTKLEIK	not met
AB13-112 (IgG4 kappa) (antibody, V domains shown, Human) VH: QVQLVESGGGLVKPGGSLRLSCAASGFTFSDYYMSWIRQAPGKGLEWVSYISDKSRYTKYTDKVRGRFTISRDNAKNSLYLQMNSLRAEDTAVYYCARYLYQVIAIADAWGQGTLVTVSS VL: DIQMTQSPSSVSASVGDRVTITCRASQGISSWLAWFQQKPGKAPKLLIFVASNLESGVPSRFSGSGSGTDFTLTISSLQPEDFATYYCQQAESFPYTFGQGTKLEIK	met
KL31-532 (antibody, V domains shown, Humanized; IgG1m(zf) kappa) VH: QVQLVQSGAEVKKPGASVKVSCKASGYTFTDYCIGWIRQAPGQGLEWMGDICPGDTYTNDNEKFKDRATMTADTSTSTAYMELSSLRSEDTAVYYCARGEEQLGLRNAMDYWGQGTLVTVSS VL: DIVMTQSPDSLAVSLGERATINCQSQSVSTSTYNYMHWYQQKPGQPPKLLIKYASNLESGVPDRFSGSGSGTDFTLTISSLQAEDVATYYCGHSYEIPWTFGGGTKVEIK	not met
KL31-513 (antibody, IgG4, V domains shown, Humanized; IgG4-2 kappa) VH: QVQLVQSGAEVKKPGASVKVSCKASGYTFTDYCIGWIRQAPGQGLEWMGDICPGDTYTNDNEKFKDRATMTADTSTSTAYMELSSLRSEDTAVYYCARGEEQLGLRNAMDYWGQGTLVTVSS VL: EIVLTQSPATLSLSPGERATLSCQSQSVSTSTYNYMHWYQQKPGQAPRLLIKYASNLESGIPDRFSGSGSGTDFTLTISRLEPEDFATYYCGHSYEIPWTFGGGTKVEIK	not met
KL31-478 (antibody, V domains shown, Humanized; IgG1m(zf) kappa) VH: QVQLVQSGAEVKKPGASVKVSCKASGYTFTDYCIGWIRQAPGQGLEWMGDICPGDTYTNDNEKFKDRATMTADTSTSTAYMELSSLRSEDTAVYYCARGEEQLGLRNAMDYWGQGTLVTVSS VL: EIVLTQSPATLSLSPGERATLSCQSQSVSTSTYNYMHWYQQKPGQAPRLLIKYASNLESGIPDRFSGSGSGTDFTLTISRLEPEDFATYYCGHSYEIPWTFGGGTKVEIK	not met
KL31-467 (antibody, V domains shown, Humanized; IgG1m(zf) kappa) VH: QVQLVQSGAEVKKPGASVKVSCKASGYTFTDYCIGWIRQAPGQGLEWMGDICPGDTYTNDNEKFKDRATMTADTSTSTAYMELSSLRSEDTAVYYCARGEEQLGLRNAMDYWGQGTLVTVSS VL: DIVMTQSPDSLAVSLGERATINCQSQSVSTSTYNYMHWYQQKPGQPPKLLIKYASNLESGVPDRFSGSGSGTDFTLTISSLQAEDVATYYCQHSWEIPWTFGGGTKVEIK	not met
KL31-240 (antibody, IgG4, V domains shown, Humanized; IgG4 kappa) VH: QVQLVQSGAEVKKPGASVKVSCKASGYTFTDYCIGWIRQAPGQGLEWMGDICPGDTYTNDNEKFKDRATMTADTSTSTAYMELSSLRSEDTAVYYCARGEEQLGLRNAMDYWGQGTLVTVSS VL: EIVLTQSPATLSLSPGERATLSCQSQSVSTSTYNYMHWYQQKPGQAPRLLIKYASNLESGIPDRFSGSGSGTDFTLTISRLEPEDFATYYCGHSYEIPWTFGGGTKVEIK	not met
AB13-288 (IgG1m(zf) kappa) (antibody, V domains shown, Human) VH: QVQLVESGGGLVKPGGSLRLSCAASGFTFSDYYMSWIRQAPGKGLEWVSYISDKSRYTKYTDKVRGRFTISRDNAKNSLYLQMNSLRAEDTAVYYCARYLYQVIAIADAWGQGTLVTVSS VL: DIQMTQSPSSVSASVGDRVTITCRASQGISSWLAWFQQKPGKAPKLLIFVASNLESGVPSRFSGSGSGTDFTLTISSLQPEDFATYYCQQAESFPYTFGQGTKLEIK	met
